Documented EC50 across a set of molecules
# SYSTEM: human TGR5 (Homo sapiens)
# Construct: expressed in transfected cells; host or cells: HEK293
# Sequence (Q8TDU6 whole entry): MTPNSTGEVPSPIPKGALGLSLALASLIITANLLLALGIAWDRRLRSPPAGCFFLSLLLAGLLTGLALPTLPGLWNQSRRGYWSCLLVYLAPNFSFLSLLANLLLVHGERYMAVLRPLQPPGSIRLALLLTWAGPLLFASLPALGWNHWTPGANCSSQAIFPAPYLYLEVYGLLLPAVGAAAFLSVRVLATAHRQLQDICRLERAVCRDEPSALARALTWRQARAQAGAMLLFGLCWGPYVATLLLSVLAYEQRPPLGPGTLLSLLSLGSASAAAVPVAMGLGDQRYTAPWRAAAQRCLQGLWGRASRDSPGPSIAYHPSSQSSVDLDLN
# ASSAY OVERVIEW: Cell-based TGR5 assay (cAMP generation, HTRF)
# TEST PARAMETERS: HEK293 cells stably transfected with human TGR5; cAMP by HTRF; 30 minutes at 37° C.; read-out: pEC50 Human TGR5 (converted)

[
  {
    "MOLECULE": "C[C@@H](O)CN(CCCCc1cc(Cl)c(COC2(c3cnccc3-c3ccccc3OC3CC3)CC2)cc1Cl)C(=O)[C@@H](O)[C@@H](O)[C@H](O)[C@@H](O)CO",
    "SYSTEM": "human TGR5 (Homo sapiens)",
    "EC50": "< 100 nM"
  },
  {
    "MOLECULE": "O=C(NCCCCCSc1ccc(Cl)c(COC2(c3cnccc3-c3ccccc3OC3CC3)CC2)c1)N[C@@H](CO)[C@@H](O)[C@H](O)[C@H](O)CO",
    "SYSTEM": "human TGR5 (Homo sapiens)",
    "EC50": "< 100 nM"
  },
  {
    "MOLECULE": "CCCC(=O)N(CCCCc1cc(Cl)c(COC2(c3cnccc3-c3ccccc3OC3CC3)CC2)cc1Cl)C[C@H](O)[C@@H](O)[C@H](O)[C@H](O)CO",
    "SYSTEM": "human TGR5 (Homo sapiens)",
    "EC50": "126 to 1000 nM"
  },
  {
    "MOLECULE": "Cc1nc(C)c(CNC2(c3cnccc3-c3ccccc3OC3CC3)CC2)nc1C",
    "SYSTEM": "human TGR5 (Homo sapiens)",
    "EC50": "126 to 1000 nM"
  },
  {
    "MOLECULE": "Cc1cc(COC2(c3cnccc3-c3ccccc3OC3CC3)CC2)c(Cl)cc1CCCCN(CCOCCO)C(=O)NC[C@H](O)[C@@H](O)[C@H](O)[C@H](O)CO",
    "SYSTEM": "human TGR5 (Homo sapiens)",
    "EC50": "< 100 nM"
  },
  {
    "MOLECULE": "Cc1ccc(C(C)CCCC(=O)N(CCC(=O)N(C)C)C[C@H](O)[C@@H](O)[C@H](O)[C@H](O)CO)cc1CNC1(c2cnccc2-c2ccccc2OC2CC2)CC1 (some centres unmarked)",
    "SYSTEM": "human TGR5 (Homo sapiens)",
    "EC50": "126 to 1000 nM"
  },
  {
    "MOLECULE": "O=C(NC[C@H](O)[C@@H](O)[C@H](O)[C@H](O)CO)N[C@H]1CC[C@@H](NS(=O)(=O)c2ccc(Cl)c(COC3(c4cnccc4-c4ccccc4OC4CC4)CC3)c2)CC1",
    "SYSTEM": "human TGR5 (Homo sapiens)",
    "EC50": "< 100 nM"
  },
  {
    "MOLECULE": "Cc1ccc(C(CO)CCCNC(=O)NC[C@H](O)[C@@H](O)[C@H](O)[C@H](O)CO)cc1CNC1(c2cnccc2-c2ccccc2OC2CC2)CC1 (some centres unmarked)",
    "SYSTEM": "human TGR5 (Homo sapiens)",
    "EC50": "126 to 1000 nM"
  }
]

For reference, reported EC50 for Cc1ccc(SCCCCN(CCCS(C)(=O)=O)C(=O)[C@@H](O)[C@@H](O)[C@H](O)[C@@H](O)CO)cc1CNC1(c2cnccc2-c2ccccc2OC2CC2)CC1 stands at 126 to 1000 nM

Value of EC50 reported for the molecule Cc1cc(COC2(c3cnccc3-c3ccccc3OC3CC3)CC2)c(C)cc1CCCCNC(=O)NC[C@H](O)[C@@H](O)[C@H](O)[C@H](O)CO (stereo in doubt) is < 100 nM

Value of EC50 reported for the molecule CC(CCCN)c1ccc(Cl)c(CNC2(c3cnccc3-c3ccccc3OC3CC3)CC2)c1 (centres unmarked) is 126 to 1000 nM
